assay: Cytotoxicity against human HepG2(2.2.15) cells; type: cell-based
Catalogue of CC50 values

structure.notation	inequality.operator	CC50 (µM)
CC(=O)OCC(=O)O[C@@H](C[C@@H](C)C1=C2C[C@H](OC(=O)COC(C)=O)[C@H]3[C@@]4(C)CCC(=O)C(C)(C)[C@@H]4CC[C@]3(C)[C@@]2(C)CC1)[C@@H](OC(=O)COC(C)=O)C(C)(C)O	=	51
COCC(=O)O[C@@H](C[C@@H](C)[C@]12CC[C@@]3(C)[C@@]1(C[C@H](OC(=O)COC)[C@H]1[C@@]4(C)CCC(=O)C(C)(C)[C@@H]4CC[C@@]13C)O2)[C@@H](OC(=O)COC)C(C)(C)O	=	1100
C[C@H](C[C@H](OC(=O)CC(C)(C)C)[C@@H](OC(=O)CC(C)(C)C)C(C)(C)O)C1=C2C[C@H](OC(=O)CC(C)(C)C)[C@H]3[C@@]4(C)CCC(=O)C(C)(C)[C@@H]4CC[C@]3(C)[C@@]2(C)CC1	>	1200
